assay: Fluorescence titration of labeled ParM with ADP; type: binding; conditions: Table 2; fluorescence titration, 20° C.
attribute.measured: pKd
// field semantics: pKd = negative decimal log of concentration (mol/L)

Lookup: Quick check: pKd of T175A: MDCC-ParM (His6/I27C/T175A/C287A) (conjugate, UniProt P11904 1-320, looked up, variant I27C T175A C287A, MDCC label; His6 tag) Plasmid segregation protein …: MLVFIDDGSTNIKLQWQESDGTIKQHCSPNSFKREWAVSFGDKKVFNYTLNGEQYSFDPISPDAVVTTNIAWQYSDVNVVAVHHALLTSGLPVSEVDIVCTLPLTEYYDRNNQPNTENIERKKANFRKKITLNGGDTFTIKDVKVMPESIPAGYEVLQELDELDSLLIIDLGGTALDISQVMGKLSGISKIYGDSSLGVSLVTSAVKDALSLARTKGSSYLADDIIIHRKDNNYLKQRINDENKISIVTEAMNEALRKLEQRVLNTLNEFSGYTHVMVIGGGAELIADAVKKHTQIRDERFFKTNNSQYDLVNGMYLIGN ?
Found: 6.43
